- Test system: MS2 coat protein
- assay-explanation: apparent KD of MS2 coat protein; designed switch direction (-1 OFF switch, 1 ON switch): -1; higher = weaker reporter binding
- details: Eterna round: R95; input ligand: microRNA oligo, concentration not stated
Measured apparent KD of MS2 coat protein of individual entries
measurement-kind: apparent KD of MS2 coat protein (nM)

residue-string	measurement-kind	unit-spec	experimental-result
AAGAAACAUGAGGAUCACCCAUGUCAGGAUAUGAGAAGAAAGAAGAAGAAAGAAGGAAUCAGAAGGGACAAAGG [Ex 1 M6 Mod of Hoglahoo] (puzzle: Exclusion 1)	apparent KD of MS2 coat protein	nM	51.7
CCGAGGUGGCGGUCCUAUGACAUGAGGAUCACCCAUGUACCUCGCCACAAGCUCUUUGCUCAUCUUAUAGUUCUCGG [Onlaor] (puzzle: Sensor v3, turn-off variant 1)	apparent KD of MS2 coat protein	nM	124
CUAUUCCGAGGAUAUACAUGAGGAUCACCCAUGUCGGGCCUCUGCGUUUAGCGCGAAAGUAGAAGGUGGGUUUC [JL Riri mod 9] (puzzle: Exclusion 3)	apparent KD of MS2 coat protein	nM	28.3
AAUAACAGAGGAUAUACUAAAAUAUGAAUAAAAUAAAUAAAACAUGAGGAUCACCCAUGUAGAAGGCUGAAUAA [JMF's Not so obvious solution 7] (puzzle: Exclusion 2)	apparent KD of MS2 coat protein	nM	29.3
GCAAGCGAUUAGGCUCGUCUUAUAAAGAAAAGAAUGAAAACAUGAGGAUCACCCAUGUAAGUGGGAAAGUUGAAGUG [JR_SV3TOV2_Sub009] (puzzle: Sensor v3, turn-off variant 2)	apparent KD of MS2 coat protein	nM	1340
AAGAAACAUGAGGAUCACCCAUGUGAGGAUAUGAAAAAGAAAAGAAAAGAAAGAAGUAUCAGAAGGCACAAAGG [salish99-ex1_r3_023] (puzzle: Exclusion 1)	apparent KD of MS2 coat protein	nM	38.6
AGUACUAUCACGAAAGUGAUAGUACAAAAAGCAAGUGAAACAUGAGGAUCACCCAUGUCCUCAUUUGCUCGUCUUAU [Identical to 94% Sensor v2, turnoff variant 2] (puzzle: Sensor v3, turn-off variant 2)	apparent KD of MS2 coat protein	nM	476
AGUAACUAUCACGAAAGUGAUAGUUACACAAGUGUAAUAACAUGAGGAUCACCCAUGUCCUCAUUUGCUCGUCUUAU [Sensor 3 - 34] (puzzle: Sensor v3, turn-off variant 2)	apparent KD of MS2 coat protein	nM	162
AAGGAUAGAGGAUAUACAUAGAUACAGAUUCAUGUAGAAUUACAUGAGGAUCACCCAUGUAGAAGGCUAUCCUA [Fiskers Ex 2 - 1] (puzzle: Exclusion 2)	apparent KD of MS2 coat protein	nM	285
AUGAGCAGACGGAGAUCCAACAUGAGGAUCACCCAUGUCUCAAAAGCUUUUUGCUCAUCUUAUUGUACCUUGGUGCA [Mat - Sensor v3 - turn-off var 1 - JL Mod - D17] (puzzle: Sensor v3, turn-off variant 1)	apparent KD of MS2 coat protein	nM	16.5

----------
- Tested on: K4 kissing-loop RNA reporter;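 also: bound reporter read as fluorescence of individual clusters on recovered sequencing chips by microscopy, with normalized cluster intensities fitted with a binding model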
- assay-explanation: apparent KD of K4 kissing-loop reporter; higher = weaker reporter binding
- details: Eterna round: R107; input ligand: arginine 13.2 mM

residue-string	apparent KD of K4 kissing-loop reporter [nM]
GUAUCGCUAGGAGGAUAUUUCGUUUUUCAUAGCAAUGGCUAUGCGGAGUGAUGUUCCGAUUUACCGGAAGAAGGCCUAGUGAUAC [FMN B 26]	172
GGUGCUGGCCAGUGAUGUUGGCGAAUACUGAAGGAUAUGAUAGGCGUCAGAAGGUCAAGAGUAAUAUCUAGAAUGAAUAGUGAUA [theeternabot_sameState_KL_FMN_A_38]	289
UGAUACCAGACGGCCGCCACUCCCGUAAGUCAAAGACUUACGAAGAGAGUUUUCCAGUGAUGUUGGAGGACCGGGUCUGGUAUCU [FiskerMod 15 - Jieux - Exclusion - Tryptophan B]	168
AAAUUUUCAAGUGAUACCAGACAUCUCUAUUACAUUAAUAUAGCUAAGUGAUGUUUAGCAGUCCCUUGGCAGCACAAUUUAAUUA [JR_SSTheophyB_Sub013]	202
AGACUACUGAUAGGAUAUAACAUCCUAGUCGUAUACCGAAAGGUAUACGAUAUCCUUCUAGUGAUGUUAGAAGGGUCGGUAGUCA [Omei KL FMN B Exc B v10]	85.5
AACUCUCAGACACCUGAGUGAUGUUCAGGCCGAGGACCGGUACGGCCGCCACUCGGGUCUGAGAGAGGUUAUCAAAGAUAGCCAA [Omei KL Tryp A SS A v3]	244
CCAUUCAUCAGAAGGAGCGUCAAGUGAUGCUAUCCAGUGAUGUUGGAUAGCACGGAACAGUGACAGGUAGGUCGCUGAUGAGAGC [Arg B SS t8]	106
UAUUUAAUUUUUAAUUUUUAAAUUGCUGAUACCAGAGCCAAUUGGCUCCCUUGGCAGCGGAUCGAGUGAUGUUCGUAUAAUUUAA [AK1 SS Theophylline A]	66.4
CUUCUUCUUCCAAUCUCGGCCAACACGGGACGAGGACCGGUACGGCCGCCACUCGUGCAGUGAUGUUGCACGAUGGUGACGGAGA [Engebiisso]	81.1
UGAUACCAGACGGCCGCCACUGCACCAGUCAAUGACUGAGCGCGGUGGCGCUCAGUGAUGUUGAGCAGGACCGGGUCUGGUAUCU [Mod of Eli's TrypBX 8 v4]	117
CCUAGUCGGAUACUCAAUCCAAUGCGAGAUACCAGCGGUCUUACGCGCCCUUGGCAGCUCAUAAUGAUGAACCAGUGAUGUUGGG [theeternabot_sameState_KL_Theo_A_40]	268
UCCUGCAAUCGCCCACGAAAGUGGAUUGAUACCAGAGUCGAAAGACUCCCUUGGCAGCGAGUGAUGUUCGAAGCAGGUAAAUAAA	503
